measurementTarget: human CD33 K146A (human, UniProt P20138 18-364)
Sequence (P20138 18-364 K146A limits assumed): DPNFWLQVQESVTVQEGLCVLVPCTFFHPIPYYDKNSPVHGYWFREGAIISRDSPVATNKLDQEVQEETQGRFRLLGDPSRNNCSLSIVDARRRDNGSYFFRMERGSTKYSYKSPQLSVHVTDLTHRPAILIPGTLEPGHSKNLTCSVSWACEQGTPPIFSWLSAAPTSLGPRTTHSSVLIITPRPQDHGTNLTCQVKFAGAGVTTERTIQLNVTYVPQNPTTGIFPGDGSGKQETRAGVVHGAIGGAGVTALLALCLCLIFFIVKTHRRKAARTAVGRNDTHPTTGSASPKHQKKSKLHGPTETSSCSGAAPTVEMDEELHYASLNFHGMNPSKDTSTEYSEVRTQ
methodDescription: flow cytometry on HEK293-T, alanine scan
readoutKind: Mean % WT Binding (% WT binding)
Supply the numeric figure in % WT binding, leaving out any unit text.

Report Mean % WT Binding, nothing else, for this binder: Refmab #3 (antibody, V domains shown, The alanine scan used IgG or Fab) VH: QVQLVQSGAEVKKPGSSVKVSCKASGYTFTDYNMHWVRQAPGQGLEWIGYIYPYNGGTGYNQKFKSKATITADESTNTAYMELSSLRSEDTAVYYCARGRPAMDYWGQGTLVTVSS VL: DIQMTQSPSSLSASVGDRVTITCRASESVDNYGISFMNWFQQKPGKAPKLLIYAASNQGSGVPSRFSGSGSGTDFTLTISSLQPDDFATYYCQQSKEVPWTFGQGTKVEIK 118

Data origin: patent US20260242735A1
